The reported measurements were obtained from patent US20250236614A1.

Entries and their measured pEC50 follow.
- Tested on: primary human T-cells
- protocol-notes: T-cell proliferation assay (CellTiter-Glo)
- Assay type: cell-based
- assay-setup: Homo sapiens, T-cell, 120 h; isomer A; CD3 antibody-stimulated T-cells, CellTiter-Glo after 5 days; read-out: Tcell Proliferation CD3 EC50
A value of pEC50 is the negative decimal logarithm of a concentration given in moles per litre.

Below, each entry is followed by its recorded pEC50 result.
compound	pEC50
COc1ccc(-c2ccc(CN3C(=O)[C@H](N)CC(F)(F)c4cc(F)c(-c5nnc(C(C)(C)C#N)o5)cc43)cc2)nc1 (single isomer, unassigned)	5.99
CC(C)(c1nnc(-c2cc3c(cc2F)C(F)(F)C[C@@H](N)C(=O)N3Cc2ccc(-c3ccc(OC(F)(F)F)cn3)cc2)o1)S(C)(=O)=O (single isomer, unassigned)	6.02

Notebook: CC(C)(C#N)c1nnc(-c2cc3c(cc2F)C(F)(F)C[C@@H](N)C(=O)N3Cc2ccc(-n3cc(C(F)(F)F)cn3)nc2F)o1 (single isomer, unassigned) , pEC50 read as 5.53

----------
- System: primary human T-cells
- protocol-notes: IL2 secretion measurements in CD3-stimulated T-cells
- Format: cell-based
- assay-setup: Homo sapiens, T-cell; isomer A; CD3 antibody-stimulated T-cells, IL2 in supernatant after 24 hours; read-out: Tcell IL2 CD3 EC50
quantity-measured: pEC50
A value of pEC50 is the negative decimal logarithm of a concentration given in moles per litre.

Below, each entry is followed by its recorded pEC50 result.
compound	measurement-target	reported-value
CC(C)(C)c1nnc(-c2cc3c(cc2F)C(F)(F)CC(N)C(=O)N3Cc2ccc(OC(F)(F)F)cc2)o1 (stereo not drawn) [Example 1]	primary human T-cells	5.98
COC(=O)N1CC2CC(c3nnc(-c4cc5c(cc4F)C(F)(F)CC(N)C(=O)N5Cc4ccc(-c5noc(C(F)(F)F)n5)cc4)o3)(C2)C1 (single isomer, unassigned) [Example 42]	primary human T-cells	5.54

Continue with the compound presented below.
Notebook: COC(F)(c1nnc(-c2cc3c(cc2F)C(F)(F)C[C@H](N)C(=O)N3Cc2ccc(OC(F)(F)F)cc2)o1)C(F)(F)F (single isomer, unassigned) [Example 4] , pEC50 read as 6.09

----------
- System: primary human T-cells
- protocol-notes: IL2 secretion measurements in CD3-stimulated T-cells
- Type: cell-based
- assay-setup: Homo sapiens, T-cell; isomer A; CD3 antibody-stimulated T-cells, IL2 in supernatant after 24 hours; read-out: Tcell IL2 CD3 EC50
quantity-measured: log10 EC50 (log10 of the value in µM)
Hello, just confirming the data are log10 of EC50 with units of µM.

compound	measurement-target	quantity-measured	reported-value
CC(C)(c1nnc(-c2cc3c(cc2F)C(F)(F)C[C@@H](N)C(=O)N3Cc2ccc(-c3ccc(C(F)(F)F)cn3)cc2)o1)S(C)(=O)=O (single isomer, unassigned) [Example 8]	primary human T-cells	log10 EC50	-0.43

Notebook: CC(C)(C#N)c1nnc(-c2cc3c(cc2F)C(F)(F)C[C@@H](N)C(=O)N3Cc2ccc(-c3ccc(C(F)(F)F)cc3)nc2)o1 (single isomer, unassigned) [Example 28] , log10 EC50 read as -0.17

Notebook: N[C@@H]1CC(F)(F)c2cc(F)c(-c3nnc(N4CCC(F)(F)CC4)o3)cc2N(Cc2ccc(-c3noc(C(F)(F)F)n3)cc2)C1=O (single isomer, unassigned) [Example 15] , log10 EC50 read as 0.11

Notebook: CC(C)(c1nnc(-c2cc3c(cc2F)C(F)(F)C[C@@H](N)C(=O)N3Cc2ccc(-c3noc(C(F)(F)F)n3)cc2)o1)S(C)(=O)=O (single isomer, unassigned) [Example 16] , log10 EC50 read as 0.16

----------
So I've got pIC50 readings for DGK ζ kinase (Homo sapiens, UniProt Q13574), take a look.
A value of pIC50 is the negative decimal logarithm of a concentration given in moles per litre.

Below, each entry is followed by its recorded pIC50 result.
>>> df
                                   compound  reported_value
0  CC(C)(C#N)c1nnc(-c2cc3c(cc2F)C(F)(F)CC(N)C(=O)N3Cc2ccc(-n3cc(C(F)(F)F)cn3)cc2)o1 (racemic)            7.10
1  CC(C)(C#N)c1nnc(-c2cc3c(cc2F)C(F)(F)C[C@@H](N)C(=O)N3Cc2ccc(-c3ccc(C(F)(F)F)cn3)cc2)o1 (single isomer, unassigned)            7.14
2  CC(C)(c1nnc(-c2cc3c(cc2F)C(F)(F)CC(N)C(=O)N3Cc2ccc(Oc3ccccc3)cc2)o1)S(C)(=O)=O (racemic)            7.24

Continue with the compound presented below.
CC(C)(C)c1nnc(-c2cc3c(cc2F)C(F)(F)C[C@@H](N)C(=O)N3Cc2ccc(OC3CCCC3)cc2)o1 (single isomer, unassigned) on DGK ζ kinase (Homo sapiens, UniProt Q13574) gives pIC50 = 7.31

----------
Entries and their measured IC50 follow.
- measurement-target: hDGKalpha(1-735)-N-His (DGKA) (Homo sapiens, UniProt P23743)
- Sequence (P23743 whole entry): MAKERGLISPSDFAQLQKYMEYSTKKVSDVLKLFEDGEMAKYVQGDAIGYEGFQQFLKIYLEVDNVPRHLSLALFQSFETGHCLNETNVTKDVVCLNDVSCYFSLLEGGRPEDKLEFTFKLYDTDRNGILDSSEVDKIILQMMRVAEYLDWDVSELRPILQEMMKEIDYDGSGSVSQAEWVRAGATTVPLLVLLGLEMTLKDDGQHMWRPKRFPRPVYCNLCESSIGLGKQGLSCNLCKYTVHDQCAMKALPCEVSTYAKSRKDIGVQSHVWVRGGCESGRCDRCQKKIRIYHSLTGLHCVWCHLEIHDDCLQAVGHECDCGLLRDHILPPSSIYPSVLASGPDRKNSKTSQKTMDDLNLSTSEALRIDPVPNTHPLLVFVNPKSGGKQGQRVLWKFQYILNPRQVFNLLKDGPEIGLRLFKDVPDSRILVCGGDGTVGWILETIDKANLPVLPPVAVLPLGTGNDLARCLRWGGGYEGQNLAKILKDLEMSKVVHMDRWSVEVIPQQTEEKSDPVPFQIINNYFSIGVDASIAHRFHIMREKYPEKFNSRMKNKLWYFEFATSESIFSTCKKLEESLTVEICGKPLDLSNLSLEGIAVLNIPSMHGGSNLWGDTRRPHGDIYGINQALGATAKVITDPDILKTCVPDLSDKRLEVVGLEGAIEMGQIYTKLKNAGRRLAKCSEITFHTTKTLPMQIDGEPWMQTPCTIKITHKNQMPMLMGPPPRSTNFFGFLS
Give your result in µM as a bare value.

Below, each entry is followed by its recorded IC50 result.
In [3]: df
Out[3]:
                                   molecule                        measurement_target  quantity_measured  reported_value
0  N[C@@H]1CC(F)(F)c2cc(F)c(-c3nnc(N4CCCC4)o3)cc2N(Cc2ccc(-n3cnc(C(F)(F)F)n3)cc2)C1=O (single isomer, unassigned)  hDGKalpha(1-735)-N-His (DGKA) (Homo sapiens, UniProt P23743)               IC50            10.9
1  CC(C)(C)c1nnc(-c2cc3c(cc2F)C(F)(F)CC(N)C(=O)N3Cc2ccc(OC(F)(F)F)cc2)o1 (stereo not shown)  hDGKalpha(1-735)-N-His (DGKA) (Homo sapiens, UniProt P23743)               IC50            33.9

COC(F)(c1nnc(-c2cc3c(cc2F)C(F)(F)C[C@H](N)C(=O)N3Cc2ccc(OC(F)(F)F)cc2)o1)C(F)(F)F (single isomer, unassigned) on hDGKalpha(1-735)-N-His (DGKA) (Homo sapiens, UniProt P23743) gives IC50 = 4.37

N[C@@H]1CC(F)(F)c2cc(F)c(-c3nnc(N4CCC(F)(F)C4)o3)cc2N(Cc2ccc(-n3cnc(C(F)(F)F)n3)cc2)C1=O (single isomer, unassigned) on hDGKalpha(1-735)-N-His (DGKA) (Homo sapiens, UniProt P23743) gives IC50 = 10.6

----------
- Tested on: MV-3 RFP cells
- protocol-notes: T-cell TCB MV3 killing assay
- Type: cell-based, human
- assay-setup: Homo sapiens, MV-3, 120 h; isomer A; 20 μM reference compound A1 = 100%, MCSP-TCB only neutral control; read-out: MSCP TCB killing MV-3 cells 5 d Emax (%)
- Protocol: All culturing steps are executed at 5% CO2, 37° C. and 95% humidity. MV-3 RFP cells are cultured in MV-3 medium (DMEM+10% FBS, 1× PenStrep and 0.5 μg/mL Puromycin) for at least 3 weeks. Cultured MV-3 cells at 80% confluency are washed once with PBS−− and trypsinized until detached. Cells are then counted and resuspended to 1*10^5 cells/mL in T-cell medium (RPMI 1640+5% human serum+1 mM Sodium Pyruvate+50 μM 2-mercaptoethanol and 1× Pen-Strep). […]
Entries and their measured Emax follow.
Give your result in % as a bare value.

Below, each entry is followed by its recorded Emax result.
compound	quantity-measured	reported-value
N[C@@H]1CC(F)(F)c2cc(F)c(-c3nnc(N4CCCC4)o3)cc2N(Cc2ccc(-c3noc(C(F)(F)F)n3)cc2)C1=O (single isomer, unassigned)	Emax	113
CC(C)(C#N)c1nnc(-c2cc3c(cc2F)C(F)(F)C[C@@H](N)C(=O)N3Cc2ccc(-c3ccc(OC(F)F)cn3)cc2)o1 (single isomer, unassigned)	Emax	98
CC(C)(c1nnc(-c2cc3c(cc2F)C(F)(F)C[C@@H](N)C(=O)N3Cc2ccc(-c3ccc(C(F)(F)F)cn3)cc2)o1)S(C)(=O)=O (single isomer, unassigned)	Emax	100

Notebook: COC(F)(c1nnc(-c2cc3c(cc2F)C(F)(F)C[C@H](N)C(=O)N3Cc2ccc(OC(F)(F)F)cc2)o1)C(F)(F)F (single isomer, unassigned) , Emax read as 94

Notebook: CC(C)(c1nnc(-c2cc3c(cc2F)C(F)(F)C[C@@H](N)C(=O)N3Cc2ccc(-c3noc(C(F)(F)F)n3)cc2)o1)S(C)(=O)=O (single isomer, unassigned) , Emax read as 84

Notebook: CC(C)(c1nnc(-c2cc3c(cc2F)C(F)(F)CC(N)C(=O)N3Cc2ccc(Oc3ccccc3)cc2)o1)S(C)(=O)=O (racemic) , Emax read as 130
